activation values by entry
tested-target: Muscarinic acetylcholine receptor M4 (Homo sapiens) (UniProt P08173)
Sequence (P08173 whole entry, looked up): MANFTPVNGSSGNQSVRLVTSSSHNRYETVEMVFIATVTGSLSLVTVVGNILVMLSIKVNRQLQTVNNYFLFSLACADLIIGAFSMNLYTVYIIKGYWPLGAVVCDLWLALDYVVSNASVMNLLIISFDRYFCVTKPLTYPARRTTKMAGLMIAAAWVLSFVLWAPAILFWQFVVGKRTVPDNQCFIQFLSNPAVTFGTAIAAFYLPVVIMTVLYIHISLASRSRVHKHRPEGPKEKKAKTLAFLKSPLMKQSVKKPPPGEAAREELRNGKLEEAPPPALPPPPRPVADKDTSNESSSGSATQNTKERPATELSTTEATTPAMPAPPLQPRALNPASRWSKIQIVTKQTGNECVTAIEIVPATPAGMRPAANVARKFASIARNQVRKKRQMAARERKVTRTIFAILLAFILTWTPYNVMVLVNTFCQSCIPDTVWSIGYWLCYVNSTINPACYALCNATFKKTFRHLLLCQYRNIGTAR
method-notes: human M4 muscarinic receptor positive allosteric modulators, primary screen, CHO-K1 cells, Fluo-8 calcium fluorescence (AID 624126)
test-parameters: CHO-K1 hM4/Gqi5, Fluo-8 calcium fluorescence, ACh EC20; at 3 µM; stronger effect = higher value; 0% = ACh EC20, 100% = maximal ACh
In all, about 360,000 compounds went through this assay and about 1,400 (0.39%) were called active. The list comes from a sample in which actives are over-represented; it also holds close analogues and randomly drawn compounds.
observable: activation (%)

compound=Cc1cc(C)c(S(=O)(=O)NCCCN2CCOCC2)cc1Br units_text=% meas_value=-4.24
compound=CCCC[C@@H]1CN=C(N)N1CCc1cc(C(F)(F)F)cc(C(F)(F)F)c1 units_text=% meas_value=-12.2
compound=O=C(CCC(=O)OCC(F)(F)C(F)F)NCc1ccccc1 units_text=% meas_value=-1.61
compound=O=C(OCC(=O)N(CCc1ccccc1)Cc1ccccc1)c1ccccc1[N+](=O)[O-] units_text=% meas_value=-11
compound="CC(C(=O)NCCc1ccc(S(N)(=O)=O)cc1)N1C(=O)CC(C)(C)Sc2ccccc21 (stereo not given)" units_text=% meas_value=-2.13
compound=CN(CC(=O)NCc1ccc2c(c1)OCO2)CC(=O)Nc1ccc(F)c(F)c1F units_text=% meas_value=-5.56
compound=CCCCOc1ccc(CON(C(C)=O)C(C)=O)cc1Cl units_text=% meas_value=-9.39
compound="Cc1nc2sc(C(c3ccco3)N3CCC4(CC3)OCCO4)c(O)n2n1 (stereo not given)" units_text=% meas_value=5.78
compound="CC(=O)NC(NC(=S)Nc1c(C)n(C)n(-c2ccccc2)c1=O)C(Cl)(Cl)Cl (stereo not given)" units_text=% meas_value=-1.16
compound="CCOc1cc(C(C(=O)NCC2CCCO2)N(C(=O)Cn2nnc3ccccc32)c2cccc(OC)c2)ccc1O (stereo not given)" units_text=% meas_value=44.7
compound="COCCn1nnnc1C(c1cc2ccc(OC)cc2[nH]c1=O)N1CCc2ccccc2C1 (stereo not given)" units_text=% meas_value=-1.22
compound="CC(C)Oc1ccccc1C(=O)NC(CO)C(=O)O (stereo not given)" units_text=% meas_value=7.23
compound="Cc1ccc(C(c2sc3nc(C)nn3c2O)N2CCN(c3ccccc3)CC2)cc1 (stereo not given)" units_text=% meas_value=4.41
compound=CN(CC(=O)NCCc1ccc(S(N)(=O)=O)cc1)CC(=O)Nc1ccc(F)c(F)c1F units_text=% meas_value=0.07
compound="COc1cc(C(=O)N2CCN(C3CCC(C)CC3)CC2)cc(OC)c1OC (stereo not given)" units_text=% meas_value=-7.26
compound=Cc1cc(C)c(S(=O)(=O)Nc2c(C)n(C)n(-c3ccccc3)c2=O)cc1[N+](=O)[O-] units_text=% meas_value=-0.44
compound="Cc1ccc(C(C(=O)NCc2ccco2)N(CC2CCCO2)C(=O)Cn2nnc3ccccc32)cc1 (stereo not given)" units_text=% meas_value=4.26
compound=O=C1c2cccc3cccc(c23)C(=O)N1c1cccc(O)c1 units_text=% meas_value=-10.1
compound=CCOc1ccc(NC(=O)CSc2nc3ccccc3c(=O)n2Cc2cccs2)cc1 units_text=% meas_value=-2.3
compound="CCCC(C)c1nnc(NC(=O)C2CC(=O)N(c3ccc(OCC)cc3)C2)s1 (stereo not given)" units_text=% meas_value=0.96
compound=COc1cccc(CN(C)CC(=O)Nc2sc3c(c2C#N)CCC3)c1 units_text=% meas_value=-0.97
compound="CC(Oc1ccccc1)C(=O)Nc1c2c(nn1-c1ccccc1)CS(=O)C2 (stereo not given)" units_text=% meas_value=-0.93
compound="CC(NS(=O)(=O)c1ccc(OCC(=O)N2CCCC2)cc1)c1ccccc1 (stereo not given)" units_text=% meas_value=1.05
compound="CCOc1ccc2[nH]c(=O)c(C(c3nnnn3CCOC)N3CCOCC3)cc2c1 (stereo not given)" units_text=% meas_value=33.2
compound="Cc1nc2sc(C(c3ccco3)N3CCOCC3)c(O)n2n1 (stereo not given)" units_text=% meas_value=31.4
